B1: tRNA (parent)
chain: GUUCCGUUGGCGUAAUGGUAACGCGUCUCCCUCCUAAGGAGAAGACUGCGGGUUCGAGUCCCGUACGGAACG

Variants of: B1
Assay: yeast fitness, log relative to wild type (ln ratio); higher = fitter; tRNA-Arg(CCU), competitive growth, 37 C, 1 M NaCl
Our labelling divides records by yeast fitness (ln) into ranges: label 0: < -0.3; label 1: ≥ -0.3 and < -0.1; label 2: ≥ -0.1

primary sequence | class assignment
GUUCCAUUGGCGUAAUGGUAACGCGUCUCCCUCCUAAGGAGACGAUUGCGGGUUCGAGUCCCGUAUGGGUCG [G6A A43C C46U C66U A69G A70U] | label 1
AUUCCGUUGGCGUAAUGGUAACGCGUCUCCCUCCUAAGGAGACGAUUGCGGGUUCGAGUCCCGUAAGGGUUG [G1A A43C C46U C66A A69G A70U C71U] | label 0
GUUCCUUUGGCGUAAUGGUAACGCGUCUCCCUCCUAAGGAGAAGACUGCGGGUUCGAGUCCCGUAAGGGACG [G6U C66A A69G] | label 2
ACUCCUUUGGCGUAAUGGUAACGCGUUUCCCUCCUAAGGAGAAGAUUGCGGGUUCGAGUCCCGUACGGGUUG [G1A U2C G6U C27U C46U A69G A70U C71U] | label 0
GCUCCGUUGGCGUAAUGGUAACGCGUUUCCCUCCUAAGGAGAAGACUGCGGGUUCGAGUCCCGUACGGAAUG [U2C C27U C71U] | label 1
GCUCCAUUGGCGUAAUGGUAACGCGUUUCCCUCCUAAGGAGACGACUGCGGGUUCGAGUCCCGUAUGGAUUG [U2C G6A C27U A43C C66U A70U C71U] | label 0
GGUCCUUUGGCGUAAUGGUAACGCGUUUCCCUCCUAAGGAGAAGACUGCGGGUUCGAGUCCCGUAUGGAUCG [U2G G6U C27U C66U A70U] | label 0
GUUCCAUUGGCGUAAUGGUAACGCGUUUCCCUCCUAAGGAGACGACUGCGGGUUCGAGUCCCGUAUGGGGCG [G6A C27U A43C C66U A69G A70G] | label 0
AUUCCGUUGGCGUAAUGGUAACGCGUCUCCCUCCUAAGGAGAAGAUUGCGGGUUCGAGUCCCGUACGGAUCG [G1A C46U A70U] | label 2
GCUCCGUUGGCGUAAUGGUAACGCGUCUCCCUCCUAAGGAGAAGACUGCGGGUUCGAGUCCCGUACGGAUUG [U2C A70U C71U] | label 2
GGUCCGUUGGCGUAAUGGUAACGCGUUUCCCUCCUAAGGAGAAGAUUGCGGGUUCGAGUCCCGUACGGGAUG [U2G C27U C46U A69G C71U] | label 1
ACUCCGUUGGCGUAAUGGUAACGCGUUUCCCUCCUAAGGAGAAGAUUGCGGGUUCGAGUCCCGUAAGGAUUG [G1A U2C C27U C46U C66A A70U C71U] | label 1
GCUCCGUUGGCGUAAUGGUAACGCGUUUCCCUCCUAAGGAGACGACUGCGGGUUCGAGUCCCGUAAGGGUUG [U2C C27U A43C C66A A69G A70U C71U] | label 0
AGUCCGUUGGCGUAAUGGUAACGCGUUUCCCUCCUAAGGAGAAGAUUGCGGGUUCGAGUCCCGUAUGGGGUG [G1A U2G C27U C46U C66U A69G A70G C71U] | label 1
ACUCCAUUGGCGUAAUGGUAACGCGUCUCCCUCCUAAGGAGAAGAUUGCGGGUUCGAGUCCCGUACGGAAUG [G1A U2C G6A C46U C71U] | label 1
GUUCCAUUGGCGUAAUGGUAACGCGUUUCCCUCCUAAGGAGACGACUGCGGGUUCGAGUCCCGUAUGGAUCG [G6A C27U A43C C66U A70U] | label 1
GUUCCUUUGGCGUAAUGGUAACGCGUCUCCCUCCUAAGGAGACGACUGCGGGUUCGAGUCCCGUACGGGGUG [G6U A43C A69G A70G C71U] | label 0
AGUCCGUUGGCGUAAUGGUAACGCGUCUCCCUCCUAAGGAGAAGACUGCGGGUUCGAGUCCCGUAUGGAGUG [G1A U2G C66U A70G C71U] | label 1
GCUCCGUUGGCGUAAUGGUAACGCGUCUCCCUCCUAAGGAGAAGACUGCGGGUUCGAGUCCCGUACGGAGCG [U2C A70G] | label 2
GCUCCAUUGGCGUAAUGGUAACGCGUUUCCCUCCUAAGGAGAAGAUUGCGGGUUCGAGUCCCGUACGGGGUG [U2C G6A C27U C46U A69G A70G C71U] | label 0
GGUCCGUUGGCGUAAUGGUAACGCGUUUCCCUCCUAAGGAGAAGAUUGCGGGUUCGAGUCCCGUAAGGAGUG [U2G C27U C46U C66A A70G C71U] | label 1
GGUCCUUUGGCGUAAUGGUAACGCGUCUCCCUCCUAAGGAGAAGAUUGCGGGUUCGAGUCCCGUAUGGAUUG [U2G G6U C46U C66U A70U C71U] | label 0
GGUCCUUUGGCGUAAUGGUAACGCGUUUCCCUCCUAAGGAGAAGACUGCGGGUUCGAGUCCCGUAAGGAACG [U2G G6U C27U C66A] | label 2
AGUCCAUUGGCGUAAUGGUAACGCGUCUCCCUCCUAAGGAGAAGACUGCGGGUUCGAGUCCCGUAUGGAUCG [G1A U2G G6A C66U A70U] | label 0
GGUCCGUUGGCGUAAUGGUAACGCGUCUCCCUCCUAAGGAGAAGAUUGCGGGUUCGAGUCCCGUAAGGAACG [U2G C46U C66A] | label 2
ACUCCAUUGGCGUAAUGGUAACGCGUCUCCCUCCUAAGGAGACGAUUGCGGGUUCGAGUCCCGUACGGAGUG [G1A U2C G6A A43C C46U A70G C71U] | label 0
GCUCCAUUGGCGUAAUGGUAACGCGUCUCCCUCCUAAGGAGACGACUGCGGGUUCGAGUCCCGUAAGGGGUG [U2C G6A A43C C66A A69G A70G C71U] | label 1
ACUCCUUUGGCGUAAUGGUAACGCGUUUCCCUCCUAAGGAGACGAUUGCGGGUUCGAGUCCCGUAAGGGGUG [G1A U2C G6U C27U A43C C46U C66A A69G A70G C71U] | label 2
GGUCCUUUGGCGUAAUGGUAACGCGUUUCCCUCCUAAGGAGAAGACUGCGGGUUCGAGUCCCGUACGGGUUG [U2G G6U C27U A69G A70U C71U] | label 0
GCUCCGUUGGCGUAAUGGUAACGCGUCUCCCUCCUAAGGAGACGAUUGCGGGUUCGAGUCCCGUAAGGAUCG [U2C A43C C46U C66A A70U] | label 2
GCUCCAUUGGCGUAAUGGUAACGCGUCUCCCUCCUAAGGAGAAGAUUGCGGGUUCGAGUCCCGUAUGGAAUG [U2C G6A C46U C66U C71U] | label 1
GGUCCAUUGGCGUAAUGGUAACGCGUUUCCCUCCUAAGGAGAAGACUGCGGGUUCGAGUCCCGUAUGGAUCG [U2G G6A C27U C66U A70U] | label 2
AGUCCUUUGGCGUAAUGGUAACGCGUCUCCCUCCUAAGGAGACGAUUGCGGGUUCGAGUCCCGUAAGGAACG [G1A U2G G6U A43C C46U C66A] | label 0
GGUCCGUUGGCGUAAUGGUAACGCGUUUCCCUCCUAAGGAGAAGACUGCGGGUUCGAGUCCCGUACGGGAUG [U2G C27U A69G C71U] | label 1
GCUCCGUUGGCGUAAUGGUAACGCGUCUCCCUCCUAAGGAGACGACUGCGGGUUCGAGUCCCGUAAGGAGUG [U2C A43C C66A A70G C71U] | label 1
AUUCCUUUGGCGUAAUGGUAACGCGUUUCCCUCCUAAGGAGAAGAUUGCGGGUUCGAGUCCCGUAAGGAUCG [G1A G6U C27U C46U C66A A70U] | label 1
GCUCCAUUGGCGUAAUGGUAACGCGUCUCCCUCCUAAGGAGACGACUGCGGGUUCGAGUCCCGUACGGGUCG [U2C G6A A43C A69G A70U] | label 2
GCUCCGUUGGCGUAAUGGUAACGCGUUUCCCUCCUAAGGAGACGAUUGCGGGUUCGAGUCCCGUACGGAACG [U2C C27U A43C C46U] | label 2
AUUCCAUUGGCGUAAUGGUAACGCGUCUCCCUCCUAAGGAGAAGAUUGCGGGUUCGAGUCCCGUAUGGAAUG [G1A G6A C46U C66U C71U] | label 2
ACUCCUUUGGCGUAAUGGUAACGCGUCUCCCUCCUAAGGAGACGAUUGCGGGUUCGAGUCCCGUAAGGGUCG [G1A U2C G6U A43C C46U C66A A69G A70U] | label 2
GCUCCAUUGGCGUAAUGGUAACGCGUCUCCCUCCUAAGGAGACGACUGCGGGUUCGAGUCCCGUACGGGUUG [U2C G6A A43C A69G A70U C71U] | label 1
AUUCCAUUGGCGUAAUGGUAACGCGUUUCCCUCCUAAGGAGAAGACUGCGGGUUCGAGUCCCGUAUGGGGUG [G1A G6A C27U C66U A69G A70G C71U] | label 0
GUUCCUUUGGCGUAAUGGUAACGCGUCUCCCUCCUAAGGAGACGAUUGCGGGUUCGAGUCCCGUACGGAGUG [G6U A43C C46U A70G C71U] | label 1
AUUCCUUUGGCGUAAUGGUAACGCGUCUCCCUCCUAAGGAGAAGACUGCGGGUUCGAGUCCCGUACGGAGUG [G1A G6U A70G C71U] | label 1
